Target: PcrV of P. aeruginosa strain PA103 (on TTSS-induced bacteria) (Pseudomonas aeruginosa strain PA103)
Test: cell-based or functional assay
Attribute: IC50 (nM), P3X63 cytotoxicity assay, MOI 4
quantity measured: IC50 (nM), P3X63 cytotoxicity assay, MOI 4

{"columns": ["binder", "experimental result"],
 "data": [
  ["Nanobody 2G09 (VHH) VHH: EVQLVESGGGLVQPGGSLRLSCAASGSFGDNYELYAMTWFRQAPGERRDFVASVTGDGSTSYADSVKDRFTISRDNAKKLMYLQMNSLKPEDTAVYYCRLLNYWGQGTLVTVSS", 4],
  ["Nanobody 5E02 (VHH) VHH: EVQLVESGGGLVQPGGSLRLSCAASGITLDSIAICWFRQAPGKEREGVSCSRGSDGSTYYADSVKGRFTISRVNAKNTVYLQMNSLKPEDTAVYYCAAAPSIFYSGGYFPSGMDYWGKGTQVTVSS", 38],
  ["Nanobody 5H01 (VHH, also called 05H01) VHH: EVQLVESGGGLVQPGGSLRLSCAASGSTLDYYAIGWFRQAPGKEREGVSCTSNSGSTYYGGSVKGRFTASRDNAKNTVYLQMNSLRPEDTAVYYCVATIGCATLGGTLDVQRYYYRGQGTQVTVSS", 7],
  ["Nanobody 2B10 (VHH, also called 02B10) VHH: EVQLVESGGGLVQPGGSLRLSCAASGSIFSINNMGWYRQAPGKQRELVTVVTSNLITTYADSVKGRFTISRDNAKNTVYLQMNSLKPEDTAVYYCNAWARSVGSVPYSQFWGQGTLVTVSS", 647]
]}
